Structures can show the parent of a compound that is named as a salt.
PROPERTY NAME: melting point

Worked cases, answers included:
- COMPOUND: "CCOCCn1cc2c(C3C(=O)Nc4ccc(Br)cc43)nc(NC[C@@H](C)O)nc2n1 (stereo partly shown) [Example 239]"
  PROPERTY NAME: "melting point"
  REPORTED MEASUREMENT: "298 to 300 °C"
- COMPOUND: "COCCn1cc2c(C3C(=O)Nc4ccc(Br)cc43)nc(NCCC3CCCNC3)nc2n1 (stereo not shown) (as salt: hydrochloride) [Example 228]"
  PROPERTY NAME: "melting point"
  REPORTED MEASUREMENT: "270 to 273 °C"
- COMPOUND: "Cn1nc([N+](=O)[O-])c2c(C3C(=O)Nc4ccc(C#N)cc43)ncnc21 (stereo not shown) [Example 148]"
  PROPERTY NAME: "melting point"
  REPORTED MEASUREMENT: "> 300 °C (dec.)"

Data request: Entry O=C1Nc2ccccc2C1c1nc(NCCc2cccnc2)nc2nn(C3CCCC3)cc12 (stereo not shown) [Example 155] has what melting point?
Data returned: 258 to 260 °C

Data request: Fill blank: measured melting point of the compound CCCn1cc2c(C3C(=O)Nc4ccc(C#N)cc43)nc(NCCc3cccnc3)nc2n1 (stereo not shown) [Example 185] is ____.
Data returned: 302 to 305 °C

---

Target: His6-GSK-3β (Homo sapiens, UniProt P49841)
Construct: made in house; host or cells: Sf21 insect cells (baculovirus)
Sequence (P49841 2-419): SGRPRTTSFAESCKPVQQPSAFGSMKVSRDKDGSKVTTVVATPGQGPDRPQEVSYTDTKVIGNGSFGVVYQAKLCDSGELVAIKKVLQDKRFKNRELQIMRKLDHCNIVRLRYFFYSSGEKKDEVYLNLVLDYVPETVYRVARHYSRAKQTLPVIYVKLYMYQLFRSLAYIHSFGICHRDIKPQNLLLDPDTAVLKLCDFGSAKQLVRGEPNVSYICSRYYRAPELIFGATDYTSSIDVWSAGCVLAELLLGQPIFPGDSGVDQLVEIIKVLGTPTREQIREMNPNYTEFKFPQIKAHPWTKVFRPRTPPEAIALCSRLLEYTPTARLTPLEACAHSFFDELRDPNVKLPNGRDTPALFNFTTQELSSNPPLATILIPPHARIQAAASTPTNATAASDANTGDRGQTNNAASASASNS
Experiment: Inhibition of His6-GSK-3β kinase activity (ELISA-based format, time-resolved fluorescence readout)
Format: biochemical
Details: class symbols; read-out: GSK3β IC50
PROPERTY NAME: IC50

- MOLECULE: "N#Cc1ccc2c(c1)C(c1nc(NCCCN3CCOCC3)nc3nn(C4CCCC4)cc13)C(=O)N2 (stereo not drawn) [Example 139]"
  TEST SYSTEM: "His6-GSK-3β (Homo sapiens, UniProt P49841)"
  PROPERTY NAME: "IC50"
  REPORTED MEASUREMENT: "< 300 nM"
- MOLECULE: "CN(C)CCNc1nc(C2C(=O)Nc3ccc(Br)cc32)c2cn(C)nc2n1 (stereo not drawn) [Example 359]"
  TEST SYSTEM: "His6-GSK-3β (Homo sapiens, UniProt P49841)"
  PROPERTY NAME: "IC50"
  REPORTED MEASUREMENT: "300 to 3000 nM"
- MOLECULE: "CCCCCn1cc2c(C3C(=O)Nc4ccc(C#N)cc43)nc(Cl)nc2n1 (stereo not drawn) [Example 291]"
  TEST SYSTEM: "His6-GSK-3β (Homo sapiens, UniProt P49841)"
  PROPERTY NAME: "IC50"
  REPORTED MEASUREMENT: "300 to 3000 nM"

Data request: For the molecule Cn1cc2c(C3C(=O)Nc4ccc(Cl)cc43)ncnc2n1 (stereo not drawn) [Example 83] , what IC50 is on record?
Data returned: 300 to 3000 nM

Data request: // IC50 lookup, key: O=C1Nc2ccc(C(F)(F)F)cc2C1c1nc(NCCCN2CCOCC2)nc2nn(C3CCCC3)cc12 (stereo not drawn) [Example 162]
Data returned: < 300 nM

Data request: I have this molecule here, C=CCn1cc2c(C3C(=O)Nc4ccc(C#N)cc43)ncnc2n1 (stereo not drawn) [Example 76] , and I need its recorded IC50.
Data returned: 300 to 3000 nM

---

Molecular target: His6-GSK-3β (Homo sapiens)
Construct: made in house; host or cells: Sf21 insect cells (baculovirus)
Experiment: Inhibition of His6-GSK-3β kinase activity (ELISA-based format, time-resolved fluorescence readout)
Type: biochemical
Details: class symbols; read-out: GSK3β IC50
Each entry below carries its recorded IC50.

Illustrative cases are given below, each with its answer.
- MOLECULE: "O=C1Nc2ccc([N+](=O)[O-])cc2C1c1ncnc2c1cnn2C1CCCC1 (stereo not drawn) [Example 57]"
  IC50: "300 to 3000 nM"
- MOLECULE: "CCCn1cc2c(C3C(=O)Nc4ccc(Br)cc43)ncnc2n1 (stereo not drawn) [Example 97]"
  IC50: "< 300 nM"
- MOLECULE: "O=C1Nc2ccc(Cl)cc2C1c1nc(NCCCN2CCOCC2)nc2nn(C3CCCC3)cc12 (stereo not drawn) [Example 278]"
  IC50: "< 300 nM"
- MOLECULE: "N#Cc1ccc2c(c1)C(c1nc(NCCN3CCOCC3)nc3c1CCC3)C(=O)N2 (stereo not drawn) [Example 341]"
  IC50: "300 to 3000 nM"
- MOLECULE: "CCOCCn1cc2c(C3C(=O)Nc4ccc(Cl)cc43)nc(NCc3ccncc3)nc2n1 (stereo not drawn) [Example 214]"
  IC50: "< 300 nM"

Data request: Data request, read-out IC50, for CC(=O)NCCNc1nc(C2C(=O)Nc3ccccc32)c2cn(C3CCCC3)nc2n1 (stereo not drawn) [Example 158]
Data returned: 300 to 3000 nM

Data request: So what does the record say about IC50 for CC(=O)NCCNc1nc(C2C(=O)Nc3ccc(C#N)cc32)c2cn(C3CCCC3)nc2n1 (stereo not drawn) [Example 151] ?
Data returned: < 300 nM

Data request: Look at this molecule and give its reported IC50. N#Cc1ccc2c(c1)C(c1nc(NCc3ccc(C(F)(F)F)nc3)nc3nn(C4CCCC4)cc13)C(=O)N2 (stereo not drawn) [Example 173]
Data returned: < 300 nM

Data request: Would you kindly share the measured IC50 for CCOCCNc1nc2c(c(C3C(=O)Nc4ccc(Cl)cc43)n1)CCC2 (stereo not drawn) [Example 325] ?
Data returned: > 10000 nM

---

Target: His6-GSK-3β (Homo sapiens, UniProt P49841)
Construct: made in house; host or cells: Sf21 insect cells (baculovirus)
Assay: Inhibition of His6-GSK-3β kinase activity (ELISA-based format, time-resolved fluorescence readout)
Assay type: biochemical
Conditions: class symbols; read-out: GSK3β IC50
PROPERTY NAME: IC50

Sample records with IC50:
- COMPOUND: "CCCn1cc2c(C3C(=O)Nc4ccc(Br)cc43)nc(NC[C@@H](O)CO)nc2n1 (some centres unmarked)"
  IC50: "< 300 nM"
- COMPOUND: "CCOCCn1cc2c(C3C(=O)Nc4ccc(Cl)cc43)nc(NCc3cccnc3)nc2n1 (centres unmarked)"
  IC50: "< 300 nM"
- COMPOUND: "COCCn1cc2c(C3C(=O)Nc4ccc(Br)cc43)nc(NCc3cccnc3)nc2n1 (centres unmarked)"
  IC50: "< 300 nM"
- COMPOUND: "COCCNc1nc(C2C(=O)Nc3ccc(Cl)cc32)c2cn(C3CCCC3)nc2n1 (centres unmarked)"
  IC50: "< 300 nM"
- COMPOUND: "CCCn1cc2c(C3C(=O)Nc4ccc(Br)cc43)nc(NC[C@@H]3CCCO3)nc2n1 (some centres unmarked)"
  IC50: "< 300 nM"

Data request: Consider the compound N#Cc1ccc2c(c1)C(c1nc(N3CCCC3)nc3nn(C4CCCC4)cc13)C(=O)N2 (centres unmarked) and give its measured IC50.
Data returned: < 300 nM

Data request: Dear colleague, I am looking for the recorded IC50 of the following compound: CCNc1nc(C2C(=O)Nc3ccc(C#N)cc32)c2cn(C3CCCC3)nc2n1 (centres unmarked)
Data returned: < 300 nM

Data request: Can you look up the measured IC50 of N#Cc1cccc2c1NC(=O)C2c1ncnc2c1cnn2C1CCCC1 (centres unmarked) for me?
Data returned: > 10000 nM

---

Target: CDK5/GST-p25 (Homo sapiens, UniProt Q00535)
Construct: The final construct, encoding for full-length human CDK5; made in house; host or cells: Sf21 insect cells (baculovirus co-infection)
Sequence (Q00535 whole entry): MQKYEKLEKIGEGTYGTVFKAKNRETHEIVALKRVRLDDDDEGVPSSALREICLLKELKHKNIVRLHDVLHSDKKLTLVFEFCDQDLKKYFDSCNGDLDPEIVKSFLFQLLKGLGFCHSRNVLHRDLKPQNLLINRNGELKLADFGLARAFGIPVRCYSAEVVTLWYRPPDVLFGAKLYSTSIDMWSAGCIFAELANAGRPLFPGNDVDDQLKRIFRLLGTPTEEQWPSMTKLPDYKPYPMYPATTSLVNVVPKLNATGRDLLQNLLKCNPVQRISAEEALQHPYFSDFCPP
Sequence (Q15078 108-307 partner limits assumed): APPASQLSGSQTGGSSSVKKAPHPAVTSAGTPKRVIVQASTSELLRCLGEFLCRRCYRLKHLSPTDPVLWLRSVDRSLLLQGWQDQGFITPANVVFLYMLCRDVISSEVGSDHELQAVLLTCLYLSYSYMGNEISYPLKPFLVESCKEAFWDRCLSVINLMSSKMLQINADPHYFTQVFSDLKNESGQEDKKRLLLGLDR
Assay: Inhibition of CDK5/GST-p25 kinase activity (ELISA with time-resolved fluorescence readout)
Type: biochemical
Settings: class symbols
IC50: recorded values

- COMPOUND: "O=C1Nc2ccc(Br)cc2C1c1nc(NCc2ccncc2)nc2c1CCC2 (stereo not drawn)"
  TEST SYSTEM: "CDK5/GST-p25 (Homo sapiens, UniProt Q00535)"
  REPORTED MEASUREMENT: "> 10 µM"

Data request: Which IC50 value belongs to O=C1Nc2ccccc2C1c1ncnc2nn(C3CCCC3)cc12 (stereo not drawn) ?
Data returned: 0.3 to 3 µM

Data request: Which measured IC50 value corresponds to N#Cc1ccc2c(c1)C(c1nc(NCc3ccc(Cl)nc3)nc3nn(C4CCCC4)cc13)C(=O)N2 (stereo not drawn) ?
Data returned: < 0.3 µM

---

Let's look at some compounds and their measured melting point.

See these solved cases before continuing.
- COMPOUND: "CNCCCNc1nc(C2C(=O)Nc3ccc(Br)cc32)c2cn(CC(C)C)nc2n1 (stereo not shown)"
  PROPERTY NAME: "melting point"
  REPORTED MEASUREMENT: "240 to 259 °C"
- COMPOUND: "O=C1Nc2ccc(C(F)(F)F)cc2C1c1ncnc2nn(C3CCCC3)cc12 (stereo not shown)"
  PROPERTY NAME: "melting point"
  REPORTED MEASUREMENT: "292 to 293 °C"
- COMPOUND: "O=C1Nc2ccc(C(F)(F)F)cc2C1c1ncnc2nn(C3CCCCC3)cc12 (stereo not shown)"
  PROPERTY NAME: "melting point"
  REPORTED MEASUREMENT: "> 300 °C"
- COMPOUND: "O=C1Nc2ccc(Br)cc2C1c1ncnc2nn(C3CCCC3)cc12 (stereo not shown)"
  PROPERTY NAME: "melting point"
  REPORTED MEASUREMENT: "319 to 322 °C (dec.)"

Data request: Request the reported melting point associated with CCCCCn1cc2c(C3C(=O)Nc4ccc(C#N)cc43)nc(NC)nc2n1 (stereo not shown)
Data returned: > 310 °C

Data request: Could you share which melting point value was measured for CCCn1cc2c(C3C(=O)Nc4ccc(C#N)cc43)nc(Cl)nc2n1 (stereo not shown) ?
Data returned: > 300 °C

Data request: # lookup: melting point of O=C1Nc2c(cc([N+](=O)[O-])cc2[N+](=O)[O-])C1c1ncnc2nn(C3CCCC3)cc12 (stereo not shown)
Data returned: > 300 °C
